# Tested on: Green Peach Aphid (GPA) (Myzus persicae) (MYZUPE)
# Method Summary: Bioassay for Green Peach Aphid (GPA), foliar spray on cabbage seedlings
# Type: in vivo
# Assay Context: 72 h, 200 ppm foliar spray on cabbage seedlings, graded after three days, Abbott corrected % control, read-out: GPA 200 ppm, % Control (or Mortality) rating
For each of the molecules below, state its mortality at 200 ppm.

Query: mortality at 200 ppm; subject: "CCN(C(=O)CCNC)c1cn(-c2cccnc2)nc1Cl" 0 to 80%

Query: mortality at 200 ppm; subject: "CCN(C(=O)C1CN(C(=O)CCC#N)C1)c1cn(-c2cccnc2)nc1Cl" 0 to 80%

Query: mortality at 200 ppm; subject: "CC(=O)N[C@H]1C=C[C@@H](C(=O)N(C)c2cn(-c3cccnc3)nc2Cl)C1" 80 to 100%

Query: mortality at 200 ppm; subject: "CCN(C(=O)CCC(=O)NCc1ccncc1)c1cn(-c2cccnc2)nc1Cl" 0 to 80%

Query: mortality at 200 ppm; subject: "CCN(C(=O)CC/C(C)=N/OCC1CC(F)(F)C1)c1cn(-c2cccnc2)nc1Cl" 0 to 80%

Query: mortality at 200 ppm; subject: "CCN(C(=O)CCC(=O)N(C)CCC(F)(F)F)c1cn(-c2cccnc2)nc1Cl" 80 to 100%

Query: mortality at 200 ppm; subject: CCN(C(=O)CCC1CCN(CCC2CC2(F)F)C1=O)c1cn(-c2cccnc2)nc1Cl (centres unmarked) 80 to 100%

Query: mortality at 200 ppm; subject: CCN(C(=O)C(C)OC(C)=O)c1cn(-c2cccnc2)nc1Cl (centres unmarked) 80 to 100%

Query: mortality at 200 ppm; subject: CCN(C(=O)CCC(C)=NOC)c1cn(-c2cccnc2)nc1Cl (mixture of isomers) 80 to 100%

Query: mortality at 200 ppm; subject: "CN(C(=O)[C@@H]1C=C[C@H](NC(=O)C(F)(F)F)C1)c1cn(-c2cccnc2)nc1Cl" 0 to 80%

Query: mortality at 200 ppm; subject: "CCN(C(=O)CC/C(=N\OCC1CC(F)(F)C1)c1cccs1)c1cn(-c2cccnc2)nc1Cl" < 0%

Query: mortality at 200 ppm; subject: "CCN(C(=O)C1CCN(C(=O)C(F)(F)F)CC1)c1cn(-c2cccnc2)nc1Cl" 80 to 100%

Query: mortality at 200 ppm; subject: "CCN(C(=O)CCNC(=O)CCC(F)(F)F)c1cn(-c2cccnc2)nc1Cl" 80 to 100%

Query: mortality at 200 ppm; subject: "CN(C)C(=O)CCC(=O)N(C)c1cn(-c2cccnc2)nc1Cl" 0 to 80%

---

# Tested on: Green Peach Aphid (GPA) (Myzus persicae) (MYZUPE)
# Method Summary: Bioassay for Green Peach Aphid (GPA), foliar spray on cabbage seedlings
# Type: in vivo
# Assay Context: 72 h, 200 ppm foliar spray on cabbage seedlings, graded after three days, Abbott corrected % control, read-out: GPA 200 ppm, % Control (or Mortality) rating
For each of the compounds below, state its mortality at 200 ppm.

Query: mortality at 200 ppm; subject: CCN(C(=O)C(C)O)c1cn(-c2cccnc2)nc1Cl (centres unmarked) 80 to 100%

Query: mortality at 200 ppm; subject: "CCN(C(=O)CN(C)C(=O)CCC(F)(F)F)c1cn(-c2cccnc2)nc1Cl" 80 to 100%

Query: mortality at 200 ppm; subject: CCN(C(=O)CCC1CN(Cc2ccc(C(F)(F)F)nc2)C1=O)c1cn(-c2cccnc2)nc1Cl (centres unmarked) 80 to 100%

Query: mortality at 200 ppm; subject: "CCN(C(=O)CC/C(C)=N/OCc1c(C)noc1C)c1cn(-c2cccnc2)nc1Cl" 0 to 80%

Query: mortality at 200 ppm; subject: "CCN(C(=O)CC/C(C)=N/OCc1noc(C(C)(C)C)n1)c1cn(-c2cccnc2)nc1Cl" 0 to 80%

Query: mortality at 200 ppm; subject: CCN(C(=O)CC/C(C)=N/OCCC1CC1(F)F)c1cn(-c2cccnc2)nc1Cl (centres unmarked) 80 to 100%

Query: mortality at 200 ppm; subject: "CN(C(=O)CN1CCCC1=O)c1cn(-c2cccnc2)nc1Cl" 80 to 100%

Query: mortality at 200 ppm; subject: "CCN(C(=O)C1CN(C(=O)C(F)(F)F)C1)c1cn(-c2cccnc2)nc1Cl" 80 to 100%

Query: mortality at 200 ppm; subject: "CN(C(=O)CCN1CCSC1=O)c1cn(-c2cccnc2)nc1Cl" 80 to 100%

Query: mortality at 200 ppm; subject: CCN(C(=O)CCC=NOCCC1CC1(F)F)c1cn(-c2cccnc2)nc1Cl (mixture of isomers) 80 to 100%

Query: mortality at 200 ppm; subject: CCN(C(=O)CC1CNC1=O)c1cn(-c2cccnc2)nc1Cl (centres unmarked) 80 to 100%

Query: mortality at 200 ppm; subject: "CN(C(=O)CN1CCSC1=O)c1cn(-c2cccnc2)nc1Cl" 0 to 80%

Query: mortality at 200 ppm; subject: "CN(C(=O)CCN1CCOC1=O)c1cn(-c2cccnc2)nc1Cl" 80 to 100%

Query: mortality at 200 ppm; subject: "CCN(C(=O)C1CN(C(=O)OC(C)(C)C)C1)c1cn(-c2cccnc2)nc1Cl" 80 to 100%

Query: mortality at 200 ppm; subject: "CCN(C(=O)CCC(=O)N(C)OC)c1cn(-c2cccnc2)nc1Cl" 80 to 100%

Query: mortality at 200 ppm; subject: "CCN(C(=O)CCC(=O)NCCC(F)(F)F)c1cn(-c2cccnc2)nc1Cl" 80 to 100%

Query: mortality at 200 ppm; subject: "CCN(C(=O)CCC(=O)NCC(F)(F)F)c1cn(-c2cccnc2)nc1Cl" 80 to 100%

Query: mortality at 200 ppm; subject: CCN(C(=O)CCC1CN(Cc2ccc(C(F)(F)F)cc2)C1=O)c1cn(-c2cccnc2)nc1Cl (centres unmarked) 0 to 80%

Query: mortality at 200 ppm; subject: CCN(C(=O)C(C)Cl)c1cn(-c2cccnc2)nc1Cl (centres unmarked) 80 to 100%

Query: mortality at 200 ppm; subject: CCN(C(=O)CCC1CCN(C(=O)OC(C)(C)C)C1=O)c1cn(-c2cccnc2)nc1Cl (centres unmarked) 80 to 100%

Query: mortality at 200 ppm; subject: "CCN(C(=O)CC/C(C)=N/OCc1ncc(C(F)(F)F)cc1Cl)c1cn(-c2cccnc2)nc1Cl" 0 to 80%

Query: mortality at 200 ppm; subject: "CN(C(=O)CN1CCCCC1=O)c1cn(-c2cccnc2)nc1Cl" 80 to 100%

Query: mortality at 200 ppm; subject: "CN(C(=O)[C@@H]1C=C[C@H](NC(=O)OC(C)(C)C)C1)c1cn(-c2cccnc2)nc1Cl" 0 to 80%

Query: mortality at 200 ppm; subject: "CCN(C(=O)CN(C)C(=O)c1ccccc1)c1cn(-c2cccnc2)nc1Cl" 80 to 100%

Query: mortality at 200 ppm; subject: "CCN(C(=O)CC/C(C)=N/Oc1cccc(C(F)(F)F)n1)c1cn(-c2cccnc2)nc1Cl" 80 to 100%

Query: mortality at 200 ppm; subject: CCN(C(=O)C1CCCCN1C(C)=O)c1cn(-c2cccnc2)nc1Cl (centres unmarked) 0 to 80%

Query: mortality at 200 ppm; subject: "CCN(C(=O)CCC(=O)NCc1ccc(F)cc1)c1cn(-c2cccnc2)nc1Cl" 0 to 80%

Query: mortality at 200 ppm; subject: "CCN(C(=O)C(C)(C)OC(C)=O)c1cn(-c2cccnc2)nc1Cl" 80 to 100%

Query: mortality at 200 ppm; subject: "CCN(C(=O)CC/C(C)=N\O)c1cn(-c2cccnc2)nc1Cl" 0 to 80%
